# target_of_assay: CDK2/Cyclin E1 (Homo sapiens)
# Construct: full-length human CDK2 co-expressed as N-terminal GST-tagged protein; GST (N); purchased Carna 04-165; host or cells: baculovirus expression system
# assay_notes: CDK2/Cyclin E1 HTRF enzyme activity assay
# Format: biochemical
# applied_conditions: 1 mM ATP; CDK2/Cyclin E1 0.25 nM; 60 minutes at room temperature
pIC50: −log10 of the molar value.
endpoint_label: pIC50

Field: pIC50 (CDK2/Cyclin E1 (Homo sapiens)). Entry: FC(F)C1(Oc2c(-c3cn[nH]c3)ncc3nc(NC4CCOCC4)nn23)CCC1 > 8.00

Same lookup for Cc1cc(-c2c(-c3cn[nH]c3)ccn3nc(NC4CCOCC4)nc23)ccc1C#N , please. > 8.00

Same lookup for CC(C)Oc1c(-c2cn[nH]c2)ncc2nc(N[C@H]3CCOC[C@H]3F)nn12 , please. > 8.00

Same lookup for CC(C)Oc1c(-c2cn[nH]c2)ccn2nc(N[C@H]3CCOC[C@H]3F)nc12 , please. > 8.00

Same lookup for C[C@H](Oc1c(-c2cn[nH]c2)ncc2nc(N[C@H]3CCOC[C@H]3F)nn12)C(F)(F)F , please. > 8.00

Same lookup for F[C@@H]1CCN(c2c(-c3cn[nH]c3)ccn3nc(N[C@H]4CCOC[C@H]4F)nc23)C1 , please. > 8.00

Same lookup for CC(C)Oc1c(-c2cn[nH]c2)ncn2nc(N[C@H]3CCOC[C@H]3F)nc12 , please. > 8.00

Same lookup for CC(C)Oc1c(-c2cn[nH]c2)ncn2nc(NC3CCOC(C)C3)nc12 (single isomer, unassigned) , please. > 8.00
